Every entry's value here was drawn from patent US8629084B2.

- test-summary: logP determination by HPLC on reversed-phase column (C18), EEC Directive 79/831 Annex V.A8
- Format: physicochemical
- protocol-conditions: compounds of formula (I-2-a); HPLC reversed-phase C18, 43° C., acidic range pH 2.3, 0.1% aqueous phosphoric acid/acetonitrile
readout-name: logP
// return a plain number; no unit text

Lookup result for Cc1ccc(I)c(C2=C(O)C3(CCCC3)OC2=O)c1 ; measured logP: 2.51

The value of logP measured for the compound CCc1cc(I)cc(C)c1C1=C(O)C2(CCC(OC)CC2)OC1=O (centres unmarked) turned out to be 2.92

# logP of CCc1cc(I)cc(C)c1C1=C(O)C2(CCOCC2)OC1=O = 2.63

Form field logP, entry CCc1cc(I)cc(C)c1C1=C(O)C2(CCCC2)OC1=O : 3.00

So for COC1CCC2(CC1)OC(=O)C(c1ccccc1I)=C2O (centres unmarked) , the logged logP turned out to be 1.92

According to the records, this compound COC1CCC2(CC1)OC(=O)C(c1cc(C)ccc1I)=C2O (centres unmarked) displays logP of 2.19

Query CCc1cc(I)cc(C)c1C1=C(O)C(C)(C)OC1=O yields logP of 2.81

Entry COC1CCC2(CC1)OC(=O)C(c1c(C)cc(I)cc1C)=C2O (centres unmarked) ; logP = 2.94

----------
Exercise: state measured logP for each of the compounds provided.
- test-summary: logP determination by HPLC on reversed-phase column (C18), EEC Directive 79/831 Annex V.A8
- Type: physicochemical
- protocol-conditions: HPLC, reversed-phase C18, 43° C., acidic range pH 2.3 (0.1% aqueous phosphoric acid/acetonitrile); table of formula (I-2-c)
Lab note: record the figure alone, no unit after it.

CCc1cc(I)cc(C)c1C1=C(OC(=O)OC(C)C)C2(CCC(OC)CC2)OC1=O (stereo not shown) has a reported logP of 4.77

Form field logP, entry CCc1cc(I)cc(C)c1C1=C(OC(=O)OC(C)C)C(C)(C)OC1=O : 4.66

Record CCc1cc(I)cc(C)c1C1=C(OC(=O)OC(C)C)C2(CCOCC2)OC1=O , field logP: 4.41

Documented logP of COC1CCC2(CC1)OC(=O)C(c1ccccc1I)=C2OC(=O)OC(C)C (stereo not shown) : 3.54
